pIC50: −log10 of the molar value.
// note: pIC50 values for Glucocorticoid receptor (Homo sapiens, UniProt P04150) were reported in different studies

Worked cases, pIC50 given:
{"compound": "Cc1cc(CCC(C)(C)O)ccc1[C@H]1SC[C@H](C)Nc2c1c(-c1ccccn1)nn2C (single isomer, unassigned)", "pIC50": "6.00 to 7.00"}
{"compound": "CC[C@@]12CC[C@](O)(C(F)(F)F)C[C@H]1CCCc1c2cc2cnn(-c3ccc(F)cc3)c2c1Br", "pIC50": "> 7.00"}
{"compound": "CC[C@@]12C[C@@H](O)[C@](O)(C(F)(F)F)C[C@@H]1CCCc1cc3c(cnn3-c3ccc(F)cc3)cc12 (single isomer, unassigned)", "pIC50": "> 7.00"}
{"compound": "COc1ccc([C@@H](Oc2ccc3c(cnn3-c3cccc(C(=O)NC4CCCC4)c3)c2)[C@H](CO)NC(=O)C(C)(F)F)cn1", "pIC50": 7.87}
{"compound": "COc1ccccc1CCC(=O)NCC1(c2ccccc2)CC1(c1ccccc1)c1ccccc1 (stereo not drawn)", "pIC50": 6.15}
{"compound": "Cc1cc(Br)ccc1C1SC(C)CNc2c1c(C)nn2C (stereo not drawn)", "pIC50": "6.00 to 7.00"}
{"compound": "C[C@H](NC(=O)C(C)(F)F)[C@H](Oc1ccc2c(cnn2-c2cccc(C(=O)N[C@@H]3CCC[C@@H]3O)c2)c1)c1ccc2c(c1)OCOC2", "pIC50": 8.76}
{"compound": "Cn1nc(-c2ccc(Cl)c(Cl)c2)c2c1NCCSC2c1ccc(Cl)cc1Cl (stereo not drawn)", "pIC50": "6.00 to 7.00"}

IN: Query for Glucocorticoid receptor (Homo sapiens, UniProt P04150): what pIC50 does the record show for O=C(NCC(c1ccccc1)C(c1ccccc1)c1ccccc1)c1cc2ccccc2s1 (stereo not drawn) ?
OUT: 6.31

IN: Query for Glucocorticoid receptor (Homo sapiens, UniProt P04150): what pIC50 does the record show for O=C(CCc1c[nH]c2ccccc12)NCC(c1ccccc1)C(c1ccccc1)c1ccccc1 (stereo not drawn) ?
OUT: 6.22

IN: Query for Glucocorticoid receptor (Homo sapiens, UniProt P04150): what pIC50 does the record show for CCC[C@@]12CC[C@](O)(CC)C[C@@H]1CCCc1cc(C(=O)Nc3cccnc3C)ccc12.CCC[C@]12CC[C@@](O)(CC)C[C@H]1CCCc1cc(C(=O)Nc3cccnc3C)ccc12 ?
OUT: > 7.00

IN: Query for Glucocorticoid receptor (Homo sapiens, UniProt P04150): what pIC50 does the record show for CC[C@]12CC[C@](O)(C(F)(F)F)C[C@H]1CC=Cc1cc3c(cnn3-c3ccc(F)cc3)cc12 ?
OUT: > 7.00

IN: Query for Glucocorticoid receptor (Homo sapiens, UniProt P04150): what pIC50 does the record show for CCn1nc(-c2ccccn2)c2c1NCCSC2c1ccc(C(=O)Nc2nnn[nH]2)cc1C (stereo not drawn) ?
OUT: 6.00 to 7.00

IN: Query for Glucocorticoid receptor (Homo sapiens, UniProt P04150): what pIC50 does the record show for CC[C@@]1(O)CC[C@@]2(Cc3ccccc3)c3ccc(C(=O)Nc4cccc(N)c4)cc3CCC[C@H]2C1 ?
OUT: > 7.00

IN: Query for Glucocorticoid receptor (Homo sapiens, UniProt P04150): what pIC50 does the record show for CC[C@@]12CC(=O)[C@](C)(O)C[C@@H]1CCCc1cc3c(cnn3-c3ccc(F)cc3)cc12 (racemic) ?
OUT: > 7.00
